The measurements presented in this section are drawn from patent US6043248A.

- target_under_test: viral reverse transcriptase (Wild Type) (Human immunodeficiency virus type 1 group M subtype B, UniProt P04585)
- Construct: Viral reverse transcriptase (Wild Type) is found in extracts from bacterial clones; made in house; host or cells: Escherichia coli
- procedure_summary: inhibition of viral reverse transcriptase (Wild Type), cell free assay
- Assay type: biochemical
- condition_context: 30 minutes at 37° C., read-out: IC50 (Table II, Wild Type)
IC50 vs 0.08 µM: less than gives condition met; not less than gives condition not met.

Consider the following illustrative entries.
                                   molecule       answer_label
0  Cc1coc2cnc([C@H](C)Sc3nc(N)cc(Cl)n3)cc12      condition met
1  CC(C)c1ccnc(C(C)Sc2nc(N)c(Br)c(Cl)n2)c1 (stereo not drawn)  condition not met
2        CCN(CC)C(=O)/C=C/CSc1nc(N)cc(Cl)n1      condition met
3  CC(Sc1nc(N)cc(Cl)n1)c1cc2ccoc2cn1 (stereo not drawn)      condition met
4  CC(Sc1nc(N)cc(Cl)n1)c1cc2c(C(F)(F)F)coc2c(Cl)n1 (stereo not drawn)  condition not met
5  CC(Sc1nc(N)cc(Cl)n1)c1cc2c(cn1)CCCC2 (stereo not drawn)      condition met

Just wondering, is IC50 of CC(Sc1nc(N)cc(Cl)n1)c1cc(N(C)C)ccn1 (stereo not drawn) below 0.08 µM?
condition not met

Bench note: check whether CC(Sc1nc(N)cc(C(F)(F)F)n1)c1cc2c(cn1)CCCC2 (stereo not drawn) shows IC50 below 0.08 µM
condition not met

Is 0.08 µM strictly greater than the molecule's reported IC50? molecule: CC(Sc1nc(N)cc(Cl)n1)c1cc(C2CCCC2)ccn1 (stereo not drawn)
condition not met

For this molecule, is IC50 lower than 0.08 µM? Cc1cc2cc(C(C)Sc3nc(N)cc(C(F)(F)F)n3)ncc2o1 (stereo not drawn)
condition not met

Strictly below 0.08 µM: is that where IC50 of CC(Sc1nc(N)cc(Cl)n1)c1ccccn1 (stereo not drawn) sits?
condition not met

Could you please tell me whether IC50 recorded for CC(Sc1nc(N)cc(Cl)n1)c1ccc(OCc2ccccc2)c(Cl)n1 (stereo not drawn) is less than 0.08 µM?
condition not met

Consider CCc1coc2cnc(C(C)Sc3nc(N)cc(Cl)n3)cc12 (stereo not drawn) . Does its IC50 lie strictly below 0.08 µM?
condition met

is_below(IC50, 0.08 µM) for Cc1cc2cc(C(C)Sc3nc(N)cc(Cl)n3)nc(Cl)c2o1 (stereo not drawn) ?
condition not met

Hello, I'm reviewing records and need to know if IC50 of Cc1cc2cc(C(C)Sc3nc(N)cc(Cl)n3)ncc2o1 (stereo not drawn) is below 0.08 µM. Could you check?
condition not met

* * *

- target_under_test: P236L viral reverse transcriptase (Human immunodeficiency virus type 1 group M subtype B, UniProt P04585, P823L)
- Construct: P236L viral reverse transcriptase is obtained by PNAS 90: 4713-4717 (1993); made in house
- procedure_summary: inhibition of viral reverse transcriptase (P236L), cell free assay
- Type: biochemical
- condition_context: 30 minutes at 37° C., read-out: IC50 (Table I, P236L)
pIC50: −log10 of the molar value.
Is pIC50 at least 6? Then t. If not, f.

In [3]: df
Out[3]:
                          test_smiles  answer_label
0  COC(=O)c1ccnc(CSc2nc(N)cc(Cl)n2)c1             t
1   Nc1cc(Cl)nc(SCc2ccc(Cl)c(Cl)c2)n1             t
2        Cc1ccnc(CSc2nc(N)cc(Cl)n2)c1             t
3           Cn1ccnc1CSc1nc(N)cc(Cl)n1             f
4    Nc1cc(Cl)nc(SCc2ccc3c(c2)CCO3)n1             t

# bool: pIC50 of `Nc1cc(Cl)nc(SCc2cc(C3CC3)ccn2)n1` >= 6
t

Does pIC50 meet or surpass 6 for `COc1ccnc(CSc2nc(N)cc(Cl)n2)c1` ?
t

Does the reported pIC50 for `Nc1cc(Cl)nc(SCc2cccc(I)c2)n1` fall at or above the 6 mark?
t

Hello, I need to know if `COc1cc(C)nc(CSc2nc(N)cc(Cl)n2)c1` has measured pIC50 not below 6. Thanks!
t

Has `Nc1cc(Cl)nc(SCc2ccc3ccccc3c2)n1` a recorded pIC50 greater than or equal to 6?
t

Please tell me: is the molecule `Nc1cc(Cl)nc(SCc2ccc3cc(F)c(F)cc3c2)n1` at or over 6 in terms of pIC50?
f

Hi, just wondering whether `Cc1ccc(CSc2nc(N)cc(Cl)n2)cc1` shows pIC50 of 6 or higher.
t
